- target-system: human IDO1 (Homo sapiens, UniProt P14902)
- Sequence (P14902 whole entry): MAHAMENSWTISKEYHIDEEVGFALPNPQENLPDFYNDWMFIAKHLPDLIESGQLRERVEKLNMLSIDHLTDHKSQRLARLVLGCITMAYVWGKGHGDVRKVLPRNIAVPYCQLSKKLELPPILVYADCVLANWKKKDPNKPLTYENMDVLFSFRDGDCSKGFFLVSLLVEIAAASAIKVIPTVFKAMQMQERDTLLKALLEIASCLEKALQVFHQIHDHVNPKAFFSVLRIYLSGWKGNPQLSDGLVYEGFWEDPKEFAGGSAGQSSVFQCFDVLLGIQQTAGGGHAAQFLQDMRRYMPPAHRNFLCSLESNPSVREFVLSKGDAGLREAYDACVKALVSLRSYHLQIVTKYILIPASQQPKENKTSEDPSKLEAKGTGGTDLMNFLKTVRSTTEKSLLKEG
- protocol: Assessment of human IDO-1 inhibitory activity in Hela cells (Interferon-gamma stimulated HeLa cells, Ehrlich reagent, absorbance 490 nm)
- Type: cell-based
- Design: endogenous in cells; host or cells: HeLa cells stimulated with interferon-gamma
- measurement-context: Hela Human IDO-1 cellular assay
endpoint: IC50

compound	IC50
CCC(CC(=O)O)c1ccc(N2CCC(C)CC2)c(Nc2cnc(OC)nc2)c1 (single isomer, unassigned) [Example 42]	> 50 nM
CCN(c1ccc([C@@H](COC)CC(=O)O)cc1Nc1ccc(F)cn1)C1CCOCC1 (single isomer, unassigned) [Example 363]	< 50 nM

We next turn to a different compound, shown below.
Write down measured IC50 (human IDO1 (Homo sapiens, UniProt P14902)) for this compound. CCCN(c1ccc([C@H](COC)CC(=O)O)cc1Nc1ccc(Cl)cc1)C1CCOCC1 (single isomer, unassigned) [Example 574] < 5 nM

Data credit: patent US9790169B2
